Source of measurements: patent US9518022B2

- test.name: Cytotoxicity assay (AlamarBlue) in mock infected MT-2 cells
- Format: cell-based
- study.conditions: human
Values of CC50 at 96 h strictly less than 9 µM map to yes, and values of at least 9 µM map to no.

Before answering, review these 3 worked examples.
# compound, qualitative.label
data = [
    ("COC(=O)N1CCc2cc(OCc3ccccc3)c(OC)cc2C1/C=C/c1ccc(OC)c(OCc2ccccc2)c1 (stereo not drawn)", "no"),
    ("COc1cc(C)c(/C=C/C2c3cc(OC)c(OCc4ccccc4)cc3CCN2C(=O)c2ccncc2)cc1OCc1ccccc1 (stereo not drawn)", "no"),
    ("COc1cc2c(cc1OCc1ccccc1)CCNC2/C=C/c1cccc2ccn(C(=O)OC(C)(C)C)c12 (stereo not drawn)", "no"),
]

Input COc1cc2c(cc1OCc1ccccc1)CCNC2/C=C/c1ccc(-c2cncnc2)cc1 (stereo not drawn) ; condition: CC50 at 96 h strictly below 9 µM. Does it hold?
yes

Consider next the compound COc1cc2c(cc1OCc1ccccc1)CCNC2c1ccccc1CNC(=O)OC(C)(C)C (stereo not drawn) in the same way.
no

Then what about the compound COc1cc2c(cc1OCc1ccccc1)CCNC2/C=C/c1scnc1C (stereo not drawn) ?
no

Continue with COc1cc2c(cc1OCc1ccccc1)CCNC2/C=C/c1ccc2cccnc2c1 (stereo not drawn)
yes

* * *

- test.name: Cytotoxicity assay (AlamarBlue) in mock infected MT-2 cells
- Assay type: cell-based
- study.conditions: human
measured.parameter: CC50 at 96 h (µM)
Number in µM, nothing else.

# molecule, uom, CC50 at 96 h
measured = [
    ("COc1cc2c(cc1/C=C/C1NCCc3cc(OCc4ccccc4)c(OC)cc31)OCO2 (centres unmarked)", "µM", 3.3),
]

Item COc1cc(/C=C/C2NCCc3cc(OCc4ccccc4)c(OC)cc32)cc(OC)c1 (centres unmarked) has what recorded CC50 at 96 h?
4.85

Similarly, COc1cc2c(cc1OCc1ccccc1)CCNC2/C=C/c1ccc(OC)c2ccoc12 (centres unmarked) ?
9.94

What about this molecule? COc1cc2c(cc1OCc1ccccc1)CCNC2/C=C/c1ccc(-n2ccnc2C)cc1 (centres unmarked)
21.1

* * *

- Tested on: HIV-1 NL4-3 viral clone engineered to express Renilla luciferase in place of Nef
- test.name: microbe, parasite or virus in culture
- Type: cell-based
- study.conditions: Human immunodeficiency virus 1, NL43, MT2, 96 h
Below: a set of entries, each annotated with reported pEC50.
Reminder that pEC50 means the negative base-10 logarithm of the concentration expressed in mol/L.

Sample answers from the record:
# molecule, pEC50
rows = [
    ("COc1cc2c(cc1OCc1ccccc1)CCNC2/C=C/c1cccc2[nH]ccc12 (centres unmarked) [CL]", 5.82),
    ("COc1cc2c(cc1OCc1ccccc1)CCNC2/C=C/c1cccc2ccn(C(=O)OC(C)(C)C)c12 (centres unmarked) [CN]", 5.74),
    ("COc1cc2c(cc1OCc1ccccc1)CCNC2/C=C/c1cccc2c1ccn2C(=O)OC(C)(C)C (centres unmarked) [CK]", 6.09),
    ("COc1cc2c(cc1OCc1ccccc1)CCNC2/C=C/c1ccc(F)c(O)c1F (centres unmarked) [CO]", 5.22),
]

Now, please, on to the next molecule.
Entry COc1cc2c(cc1OCc1ccccc1)CCNC2/C=C/c1cccnc1N(C)C (centres unmarked) [CU] has what pEC50?
5.85

* * *

- test.name: Cytotoxicity assay (AlamarBlue) in mock infected MT-2 cells
- Format: cell-based
- study.conditions: human
Documented CC50 at 96 h across a set of compounds
Expressed in µM, but write only the number.

Please review the entries below; each comes with its answer.
# compound, CC50 at 96 h (µM)
measured = [
    ("COc1cc(C)c(/C=C/C2NCCc3cc(OCc4ccccc4)c(OC)cc32)cc1OC (stereo not drawn)", 2.4),
    ("COc1cc2c(cc1OCc1ccccc1)CCNC2/C=C/c1cc2ccccc2s1 (stereo not drawn)", 16.3),
    ("COc1cc2c(cc1OCc1ccccc1)CCNC2/C=C/c1ccccc1N(C)C (stereo not drawn)", 10),
]

Please examine the following record next.
What value of CC50 at 96 h has been recorded for this entry: COc1cc2c(cc1OCc1ccccc1)CCNC2/C=C/c1ccccc1NC(=O)OC(C)(C)C (stereo not drawn)
23.6

* * *

- test.name: Cytotoxicity assay (AlamarBlue) in mock infected MT-2 cells
- Type: cell-based
- study.conditions: human
- Procedure: The present assay was used to screen candidate antiviral compounds by quantification of virus spread and production over several rounds of infection in vitro. […] Additionally, viral spread was quantified by measuring luciferase activity via a commercially available luciferase substrate. […] Compound toxicity was quantified 96 hours after treatment with AlamarBlue. […]
measured.parameter: log10 of CC50 at 96 h (log10 of the value in µM)
Recorded CC50 at 96 h (log10, µM)

Name the reported log10 of CC50 at 96 h value associated with the compound COCCOc1ccccc1/C=C/C1NCCc2cc(OCc3ccccc3)c(OC)cc21 (centres unmarked)
1.00

Same read-out for COc1ccc(/C=C/C2NCCc3cc(OCc4ccccc4)c(OC)cc32)c(OC)n1 (centres unmarked) ?
1.18

Next compound: COc1cc2c(cc1OCc1ccccc1)CCNC2/C=C/c1ccccc1N1CCCCC1 (centres unmarked)
0.73

Request: COc1cc(C)c(/C=C/C2NCCc3cc(OCc4ccccc4)c(OC)cc32)c(C)c1 (centres unmarked)
0.52

Moving on to "COc1cc(C)c(/C=C/C2=NCCc3cc(OCc4ccccc4)c(OC)cc32)cc1OCc1ccccc1"
1.53

* * *

- test.name: Cytotoxicity assay (AlamarBlue) in mock infected MT-2 cells
- Assay type: cell-based
- study.conditions: human
measured.parameter: CC50 at 96 h (µM)
Provide only the numeric value, understood in µM.

# compound, CC50 at 96 h [µM]
data = [
    ("COc1cc2c(cc1OCc1ccccc1)CCNC2/C=C/c1ccc2occc2c1 (stereo not drawn)", 20.7),
]

// CC50 at 96 h lookup, key: COc1ccc(/C=C/C2NCCc3cc(OCc4ccccc4)c(OC)cc32)c(C)c1 (stereo not drawn)
9.83

And then COc1cc2c(cc1OCc1ccccc1)CCNC2/C=C/c1cccc(OCc2ccccc2)c1 (stereo not drawn) , what is it?
4

Queued: COc1cc(C)c(CCC2NCCc3cc(OCc4ccccc4)c(OC)cc32)cc1OCc1ccccc1 (stereo not drawn)
5.15

Also, COc1cc2c(cc1OCc1ccccc1)CCNC2/C=C/c1cc2ccccc2n1C(=O)OC(C)(C)C (stereo not drawn) please.
3.48

Field entry: COc1cc2c(cc1OCc1ccccc1)CCNC2/C=C/c1cccc2[nH]ccc12 (stereo not drawn)
7.2

// repeat for CCCCOc1ccc(/C=C/C2NCCc3cc(OCc4ccccc4)c(OC)cc32)cc1OC (stereo not drawn) and report
3.62

Check COc1cc2c(cc1OCc1ccccc1)CCNC2/C=C/c1cc2c(cc1C)OCCO2 (stereo not drawn) too.
2.43

* * *

- test.name: Cytotoxicity assay (AlamarBlue) in mock infected MT-2 cells
- Type: cell-based
- study.conditions: human
measured.parameter: CC50 at 96 h (µM)
Give just the number in µM; leave the unit off.

# compound, uom, CC50 at 96 h
data = [
    ("CCCCOc1cc(/C=C/C2NCCc3cc(OCc4ccccc4)c(OC)cc32)ccc1OC (centres unmarked) [BE]", "µM", 3.75),
    ("COc1cc(/C=C/C2NCCc3cc(OC)c(OCc4ccccc4)cc32)ccc1OCc1ccccc1 (centres unmarked) [Example S]", "µM", 8.25),
    ("COc1cc2c(cc1OC)C(/C=C/c1cc(OCc3ccccc3)c(OC)cc1C)NCC2 (centres unmarked) [Example C]", "µM", 11),
    ("COc1cc2c(cc1/C=C/C1NCCc3cc(OCc4ccccc4)c(OC)cc31)OCCO2 (centres unmarked) [CQ]", "µM", 1.4),
    ("COc1cc(C)c(/C=C/C2c3cc(OC)c(OCc4ccccc4)cc3CCN2C(=O)OC(C)(C)C)cc1OCc1ccccc1 (centres unmarked) [Example Y]", "µM", 28.1),
    ("COc1ccc(/C=C/C2c3cc(OC)c(OCc4ccccc4)cc3CCN2C(=O)c2cnccn2)cc1OCc1ccccc1 (centres unmarked) [Example B]", "µM", 5),
    ("COc1cc2c(cc1OCc1ccccc1)CCNC2/C=C/c1cc2c(cc1C)OCC2 (centres unmarked) [CG]", "µM", 4.8),
]

# input for lookup
Entry under review: COc1cc2c(cc1OCc1ccccc1)CCNC2/C=C/c1ccc(N2CCN(C)CC2)cc1 (centres unmarked) [DW] . Reported CC50 at 96 h?
2.31

* * *

molecules and their reported CC50 at 96 h
- test.name: Cytotoxicity assay (AlamarBlue) in mock infected MT-2 cells
- Assay type: cell-based
- study.conditions: human
Please respond with the number in µM and leave the unit unwritten.

Here's what some known entries look like.
# molecule, uom, CC50 at 96 h
data = [
    ("COc1cc2c(cc1OCc1ccccc1)CCNC2/C=C/c1cc(OC(F)(F)F)ccc1C (stereo not shown)", "µM", 5.3),
    ("COc1ccc(/C=C/C2c3cc(OC)c(OCc4ccccc4)cc3CCN2C)cc1OCc1ccccc1 (stereo not shown)", "µM", 6.68),
    ("CCOC(=O)c1coc(-c2cccc(/C=C/C3NCCc4cc(OCc5ccccc5)c(OC)cc43)c2)n1 (stereo not shown)", "µM", 5.9),
]

// switching to the query molecule
I would be grateful if you could share the reported CC50 at 96 h for COc1cc2c(cc1OCc1ccccc1)CCNC2/C=C/c1ccc(-n2ccnc2)cc1 (stereo not shown) .
9.13
